Readout type: IC50 (nM)
Report as a plain number; the unit nM is understood.

Record `NC1=Nc2c(F)cccc2[C@H]2CCC[C@@H]12` : what is its IC50 with Nitric oxide synthase 1 (Homo sapiens, UniProt P29475)?
170

Record `COC(=O)[C@@H](N)CCCNC(=N)N[N+](=O)[O-]` : what is its IC50 with Nitric oxide synthase 1 (Homo sapiens, UniProt P29475)?
1600

Record `Cc1ccc2c(c1)N=C(N)[C@@H]1CCC[C@H]21` : what is its IC50 with Nitric oxide synthase 1 (Homo sapiens, UniProt P29475)?
190

Record `NC1=Nc2c(cc(Cl)c(F)c2F)[C@H]2CCC[C@@H]12` : what is its IC50 with Nitric oxide synthase 1 (Homo sapiens, UniProt P29475)?
2100

Record `NC1=Nc2ccccc2[C@H]2COC[C@@H]12` : what is its IC50 with Nitric oxide synthase 1 (Homo sapiens, UniProt P29475)?
130

Record `COc1ccc2c(c1)N=C(N)[C@@H]1CCC[C@H]21` : what is its IC50 with Nitric oxide synthase 1 (Homo sapiens, UniProt P29475)?
240

Record `NC1=Nc2ccc([N+](=O)[O-])cc2[C@H]2CCC[C@@H]12` : what is its IC50 with Nitric oxide synthase 1 (Homo sapiens, UniProt P29475)?
250

Record `NC1=Nc2c(ccc(F)c2F)[C@H]2CCC[C@@H]12` : what is its IC50 with Nitric oxide synthase 1 (Homo sapiens, UniProt P29475)?
680

Record `NC1=Nc2cc([N+](=O)[O-])ccc2[C@H]2CCC[C@@H]12` : what is its IC50 with Nitric oxide synthase 1 (Homo sapiens, UniProt P29475)?
310

Record `COc1ccc2c(c1)[C@H]1CCC[C@H]1C(N)=N2` : what is its IC50 with Nitric oxide synthase 1 (Homo sapiens, UniProt P29475)?
640

Record `N#Cc1ccc2c(c1)[C@H]1CCC[C@H]1C(N)=N2` : what is its IC50 with Nitric oxide synthase 1 (Homo sapiens, UniProt P29475)?
640

Record `Cc1ccc2c(c1)[C@H]1CCC[C@H]1C(N)=N2` : what is its IC50 with Nitric oxide synthase 1 (Homo sapiens, UniProt P29475)?
500

###

Experimental system: Nitric oxide synthase 3 (Homo sapiens, UniProt P29474)
Sequence (P29474 whole entry): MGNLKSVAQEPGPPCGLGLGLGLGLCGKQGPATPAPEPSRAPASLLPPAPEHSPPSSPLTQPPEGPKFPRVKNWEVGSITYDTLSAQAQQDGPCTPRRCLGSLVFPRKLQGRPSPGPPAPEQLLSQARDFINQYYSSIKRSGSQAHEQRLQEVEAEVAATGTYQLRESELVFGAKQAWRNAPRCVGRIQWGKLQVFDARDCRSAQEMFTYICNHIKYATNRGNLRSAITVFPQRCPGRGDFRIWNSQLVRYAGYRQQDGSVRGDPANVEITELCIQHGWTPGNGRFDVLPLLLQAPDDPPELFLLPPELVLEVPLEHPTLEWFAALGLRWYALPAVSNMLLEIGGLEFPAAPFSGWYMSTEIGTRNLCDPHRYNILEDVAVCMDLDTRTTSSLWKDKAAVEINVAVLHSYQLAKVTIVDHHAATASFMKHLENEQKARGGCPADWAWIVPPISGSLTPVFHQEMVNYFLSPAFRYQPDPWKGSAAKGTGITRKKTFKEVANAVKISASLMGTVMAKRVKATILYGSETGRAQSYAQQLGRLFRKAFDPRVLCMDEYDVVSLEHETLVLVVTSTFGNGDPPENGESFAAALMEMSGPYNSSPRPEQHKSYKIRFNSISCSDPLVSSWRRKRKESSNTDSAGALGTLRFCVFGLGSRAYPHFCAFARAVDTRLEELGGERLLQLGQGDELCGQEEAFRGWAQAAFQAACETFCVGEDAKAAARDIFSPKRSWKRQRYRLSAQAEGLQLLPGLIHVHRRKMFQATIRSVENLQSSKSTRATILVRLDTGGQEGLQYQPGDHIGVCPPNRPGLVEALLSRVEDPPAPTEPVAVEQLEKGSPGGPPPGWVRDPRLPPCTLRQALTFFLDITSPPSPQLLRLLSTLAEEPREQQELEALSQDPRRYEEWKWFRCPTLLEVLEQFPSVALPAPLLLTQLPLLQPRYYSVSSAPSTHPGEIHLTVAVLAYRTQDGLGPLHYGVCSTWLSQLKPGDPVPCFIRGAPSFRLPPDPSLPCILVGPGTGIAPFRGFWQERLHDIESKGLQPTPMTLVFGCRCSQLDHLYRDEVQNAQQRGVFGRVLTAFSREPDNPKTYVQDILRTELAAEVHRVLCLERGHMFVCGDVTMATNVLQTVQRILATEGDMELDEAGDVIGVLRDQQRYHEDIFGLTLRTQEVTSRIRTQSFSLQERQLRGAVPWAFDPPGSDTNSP
pIC50: −log10 of the molar value.
Label rule, in plain words: pIC50 of 5 and up is Met, under 5 is Not met.

Kindly determine if pIC50 recorded for `COc1ccc2c(c1)[C@H]1CCC[C@H]1C(N)=N2` is above or exactly 5.
Not met

Kindly determine if pIC50 recorded for `NC1=Nc2ccccc2[C@H]2COC[C@@H]12` is above or exactly 5.
Met

Kindly determine if pIC50 recorded for `Cc1ccc2c(c1)N=C(N)[C@@H]1CCC[C@H]21` is above or exactly 5.
Met

Kindly determine if pIC50 recorded for COC(=O)[C@@H](N)CCCNC(=N)N[N+](=O)[O-] [L-NAME] is above or exactly 5.
Met

Kindly determine if pIC50 recorded for `NC1=Nc2cc(F)ccc2[C@H]2CCC[C@@H]12` is above or exactly 5.
Met

Kindly determine if pIC50 recorded for `NC1=Nc2ccccc2[C@H]2CCC[C@@H]12` is above or exactly 5.
Met

Kindly determine if pIC50 recorded for `NC1=Nc2c(F)cc(Cl)cc2[C@H]2CCC[C@@H]12` is above or exactly 5.
Not met

Kindly determine if pIC50 recorded for `NC1=Nc2c(F)cccc2[C@H]2CCC[C@@H]12` is above or exactly 5.
Met

Kindly determine if pIC50 recorded for `N#Cc1ccc2c(c1)[C@H]1CCC[C@H]1C(N)=N2` is above or exactly 5.
Not met

Source of measurements: ChEMBL document CHEMBL1135323
